Entry source: PubChem BioAssay (NCI)

Test system: HL-60(TB) leukemia
Test: NCI-60 one-dose screen, 48 h (100 = growth as untreated, 0 = no growth, -100 = all killed)
Details: 10 µM unless noted
Compounds without any hit were thinned out: in the full panel of roughly 83,000, 20% have a hit.

>  <Compound>
CN1C(=O)N[C@H]2[C@@H]3NC(=O)c4ccc(Br)n4[C@@H]3C[C@]21O

>  <growth [%]>
-20

$$$$
>  <Compound>
CCCCCCCCCCCCCC[P+](CCCCCC)(CCCCCC)CCCCCC

>  <growth [%]>
43.1

$$$$
>  <Compound>
O=c1[nH]cc(N(CCCl)CCCl)c(=O)[nH]1

>  <growth [%]>
-9.89

$$$$
>  <Compound>
CC(=O)OC[C@]1(C)C=C2C(=O)[C@](C)(O)C3(CC3)C(C)=C2[C@H]1O

>  <growth [%]>
-12.4

$$$$
>  <Compound>
C1CCC2(CC1)OOCNCOO2

>  <growth [%]>
71.7

$$$$
>  <Compound>
COc1ccc2c(c1)c(-c1nc(-c3cn(C)c4ncccc34)cs1)cn2CCN1CCOCC1

>  <growth [%]>
31.3

$$$$
>  <Compound>
CC(=O)OC1CCC2C3CCC4=C/C(=N/OC(=O)c5ccc(N(CCCl)CCCl)cc5)CCC4(C)C3CC(C)C12 (stereo not given)

>  <growth [%]>
33.7

$$$$
>  <Compound>
N#CC1(c2ccccc2)CCN(Cc2ccccc2)CC1

>  <growth [%]>
102

$$$$
>  <Compound>
CN(C)C(=O)Oc1ccccc1-c1ccccc1

>  <growth [%]>
99.7

$$$$
>  <Compound>
CC12CC(=O)C3(SC#N)C(CCC4=CC(=O)CCC43C)C1CCC2=O (stereo not given)

>  <growth [%]>
43.2

$$$$

* * *

System: HOP-92 NSCLC
Test: NCI-60 one-dose screen, 48 h (100 = growth as untreated, 0 = no growth, -100 = all killed)
Details: 10 µM unless noted
The panel holds about 83,000 compounds, 20% with a hit somewhere; the sample as a whole holds those more often.
// Criterion not met strictly below 40% in growth; Criterion met otherwise

>  <Compound>
COC(=O)[C@@]1(O)C[C@H]2O[C@]1(C)n1c3ccccc3c3c4c(c5c6ccccc6n2c5c31)C(=O)NC4

>  <Class Assignment>
Criterion not met

$$$$
>  <Compound>
C#C[C@]1(OC(=O)CCCCCC)CC[C@H]2[C@@H]3CCC4=CC(=O)CC[C@@H]4[C@H]3CC[C@@]21C

>  <Class Assignment>
Criterion met

$$$$
>  <Compound>
CCCCN1CCCC[C@@H]1C(=O)N[C@H](C(=O)N(C)[C@H](CCc1nc(C(=O)N[C@@H](Cc2ccccc2)C[C@H](C)C(=O)OC)cs1)C(C)C)[C@@H](C)CC

>  <Class Assignment>
Criterion not met

$$$$
>  <Compound>
C1CCC([PH+](C2CCCCC2)C2CCCCC2[PH+](C2CCCCC2)C2CCCCC2)CC1.O=C(C1[CH-]CCCC1)C1CCCC[N-]1.[Au] (stereo not drawn)

>  <Class Assignment>
Criterion not met

$$$$
>  <Compound>
CN(C)C(=O)Oc1ccccc1

>  <Class Assignment>
Criterion met

$$$$
>  <Compound>
CN1CCCCC1C(C)(O)c1ccccc1 (stereo not drawn)

>  <Class Assignment>
Criterion met

$$$$
>  <Compound>
CC1(C)[C@H](O)[C@H](F)C[C@@]2(C)Oc3ccc(C(=O)Nc4ccc5c(c4)NC(=O)C54CCN(CCCCC#N)CC4)cc3C[C@H]12

>  <Class Assignment>
Criterion met

$$$$
>  <Compound>
COc1cc2c(=O)n(C3CCCCCCC3)c3c4cc[nH]c4ncc3c2cc1OC

>  <Class Assignment>
Criterion met

$$$$
>  <Compound>
COc1cccc2c1c(C(=O)c1ccco1)cn2Cc1ccc(F)cc1

>  <Class Assignment>
Criterion met

$$$$
>  <Compound>
CC[C@H](C)[C@H](NC(=O)[C@H]1CCCCN1C)C(=O)N(C)[C@H](C[C@@H](OC(C)=O)c1nc(C(=O)NC23CC(C(=O)OC)(C2)C3)cs1)C(C)C

>  <Class Assignment>
Criterion not met

$$$$
>  <Compound>
OCc1ccc2c(c1)OCO2

>  <Class Assignment>
Criterion met

$$$$
>  <Compound>
CC[C@H](C)[C@H](NC(=O)[C@H]1CCCCN1C)C(=O)N(C)[C@H](C[C@@H](O)c1nc(C(=O)N[C@@H](Cc2ccccc2)C[C@H](C)C(=O)O)cs1)C(C)C

>  <Class Assignment>
Criterion met

$$$$
>  <Compound>
CC(=O)[O][Hg][c]1c(N)c(C)cc(C)c1F

>  <Class Assignment>
Criterion not met

$$$$
>  <Compound>
C[C@@]12CC=C3c4nc(Nc5cccc(O)c5)sc4CC[C@]3(C)[C@H]1CC[C@]1(C)C(=O)CC[C@@H]21

>  <Class Assignment>
Criterion met

$$$$
>  <Compound>
CC(=O)O[C@H]1C(=O)[C@@]2(C)[C@H]([C@H](OC(=O)c3ccccc3)[C@]3(O)C[C@H](OC(=O)[C@H](OC(=O)OCC4COC(C)(C)O4)[C@@H](NC(=O)c4ccccc4)c4ccccc4)C(C)=C1C3(C)C)[C@]1(OC(C)=O)CO[C@@H]1C[C@@H]2O (stereo partly drawn)

>  <Class Assignment>
Criterion met

$$$$
>  <Compound>
COC(=O)[C@@H](C)C[C@H](Cc1ccccc1)NC(=O)c1csc([C@@H](C[C@H](C(C)C)N(C)C(=O)C2(NC(=O)[C@H]3CCCCN3C)CCC2)OC(C)=O)n1

>  <Class Assignment>
Criterion not met

$$$$
>  <Compound>
CC(C)=CCC/C(C)=C/C=N\N=C(/N)N[N+](=O)[O-]

>  <Class Assignment>
Criterion met

$$$$
>  <Compound>
Cc1sc2c(c1C)C(c1ccc(Cl)cc1)=N[C@@H](CC(=O)OC(C)(C)C)c1nnc(C)n1-2

>  <Class Assignment>
Criterion not met

$$$$
>  <Compound>
CCCCCC1(CCBr)C(=O)NC(=O)NC1=O

>  <Class Assignment>
Criterion met

$$$$
>  <Compound>
CNC(=O)Oc1ccc2c(c1)OCO2

>  <Class Assignment>
Criterion met

$$$$
>  <Compound>
CCOc1ccc(/C=C/[N+](=O)[O-])cc1

>  <Class Assignment>
Criterion met

$$$$
>  <Compound>
NC(=Nc1ccccc1)N[N+](=O)[O-]

>  <Class Assignment>
Criterion met

$$$$
>  <Compound>
CC[C@H](C)[C@H](NC(=O)N[C@@H](C)c1ccccc1)C(=O)N(C)[C@H](C[C@@H](OC(C)=O)c1nc(C(=O)N[C@@H](Cc2ccccc2)C[C@H](C)C(=O)OC)cs1)C(C)C

>  <Class Assignment>
Criterion met

$$$$

* * *

System: SNB-19 CNS
Assay: NCI-60 one-dose screen, 48 h
Conditions: 10 µM unless noted
This is part of a sample that, as a whole, favours compounds with a hit. Of some 83,000 tested, about 20% had one in any assay. Active and inactive are the calls of the source. Rule for the calls: active = growth percent below 10; inactive = the rest.
Labels: active, inactive

>  <Molecule>
C=CCn1cc(C=C2C(=O)N(C)C(=O)N(C)C2=O)c2ccccc21

>  <Class Assignment>
inactive

$$$$
>  <Molecule>
Cc1cc(C)c(CBr)c(C)c1

>  <Class Assignment>
inactive

$$$$
>  <Molecule>
CN1CCC(c2c[nH]c3ccccc23)C1 (stereo not given)

>  <Class Assignment>
inactive

$$$$
>  <Molecule>
C=CC[PH+](c1ccccc1)c1ccccc1.C=CC[PH+](c1ccccc1)c1ccccc1.[Cl][Pt][Cl]

>  <Class Assignment>
inactive

$$$$
>  <Molecule>
O=C(O)C(Cl)(Cl)C(F)(F)F

>  <Class Assignment>
inactive

$$$$
>  <Molecule>
O=C(CC1(O)C(=O)Nc2ccc(Br)cc21)c1ccc(C(=O)NCC2CCC3(CC2)OOC2(CCCCC2)OO3)cc1 (stereo not given)

>  <Class Assignment>
inactive

$$$$
>  <Molecule>
O=C1NC(=O)C(=Cc2cn(C(=O)c3ccccc3)c3ccccc23)C(=O)N1

>  <Class Assignment>
inactive

$$$$
>  <Molecule>
CNC(=O)Oc1ccc2c(c1)OCO2

>  <Class Assignment>
inactive

$$$$
>  <Molecule>
O=C1C=C(N2C3C4CCC(C4)C32)C(=O)C=C1c1ccccc1 (stereo not given)

>  <Class Assignment>
inactive

$$$$
>  <Molecule>
O=C(CCCCCNC1=CC(=O)c2ccccc2C1=O)NCCC[Te]c1ccccc1

>  <Class Assignment>
active

$$$$
>  <Molecule>
C/C(=C\c1ccn(-c2ccc(N)cc2C(F)(F)F)n1)[C@@H]1C[C@@H]2O[C@]2(C)CCC[C@H](C)[C@H](O)[C@@H](C)C(=O)C(C)(C)[C@@H](O)CC(=O)O1

>  <Class Assignment>
inactive

$$$$
>  <Molecule>
[Cl][Hg][n]1c(-c2ccco2)nc2ccccc21

>  <Class Assignment>
inactive

$$$$
>  <Molecule>
Nc1c(F)cc(-c2nc3cc(F)ccc3[se]2)cc1F

>  <Class Assignment>
inactive

$$$$
>  <Molecule>
Clc1cccc(NCOOC2(OOCNc3cccc(Cl)c3)CCCCC2)c1

>  <Class Assignment>
inactive

$$$$
>  <Molecule>
C#C[C@]1(OC(=O)CCCCCC)CC[C@H]2[C@@H]3CCC4=CC(=O)CC[C@@H]4[C@H]3CC[C@@]21C

>  <Class Assignment>
inactive

$$$$
